Just for reference, PubChem BioAssay AID1963428 is where these values come from.

The compounds listed here are annotated with their IC50.
tested on: 171881-019-R-J1-PDC complex spheroid growth, % test/control; assay: Anticancer human tumor 171881-019-R-J1-PDC patient-derived invasive breast carcinoma cell line growth inhibition [Asc]; details: curve of first compound; second compound 3 µM

Would you please look over these solved cases?
compound	targetOrSystem	IC50
CCN1CCN(Cc2ccc(Nc3ncc(F)c(-c4cc(F)c5nc(C)n(C(C)C)c5c4)n3)nc2)CC1 + CCN1C(C(=O)NC23CCC(C(=O)O)(CC2)CC3)C(c2cccc(Cl)c2F)C2(C(=O)Nc3cc(Cl)ccc32)C12CCCCC2	171881-019-R-J1-PDC complex spheroid growth, % test/control	> 1000 nM
C=C(F)C(=O)N1CCN(c2nc(OCC3CCCN3C)nc3c2CCN(c2cccc4cccc(Cl)c24)C3)CC1CC#N (configuration not stated) + CCN1C(C(=O)NC23CCC(C(=O)O)(CC2)CC3)C(c2cccc(Cl)c2F)C2(C(=O)Nc3cc(Cl)ccc32)C12CCCCC2	171881-019-R-J1-PDC complex spheroid growth, % test/control	6000 nM
C=CC(=O)N1CCN(c2nc(=O)n(-c3c(C)ccnc3C(C)C)c3nc(-c4c(O)cccc4F)c(F)cc23)C(C)C1 (configuration not stated) + CCN1C(C(=O)NC23CCC(C(=O)O)(CC2)CC3)C(c2cccc(Cl)c2F)C2(C(=O)Nc3cc(Cl)ccc32)C12CCCCC2	171881-019-R-J1-PDC complex spheroid growth, % test/control	> 10000 nM
O=C(c1cc(Cc2n[nH]c(=O)c3ccccc23)ccc1F)N1CCN(C(=O)C2CC2)CC1 + CCN1C(C(=O)NC23CCC(C(=O)O)(CC2)CC3)C(c2cccc(Cl)c2F)C2(C(=O)Nc3cc(Cl)ccc32)C12CCCCC2	171881-019-R-J1-PDC complex spheroid growth, % test/control	> 10000 nM
NC1CCC(NC2CC2c2ccccc2)CC1 (configuration not stated) + CCN1C(C(=O)NC23CCC(C(=O)O)(CC2)CC3)C(c2cccc(Cl)c2F)C2(C(=O)Nc3cc(Cl)ccc32)C12CCCCC2	171881-019-R-J1-PDC complex spheroid growth, % test/control	> 100 nM
NC(=O)C(=Cn1cnc(-c2cc(C(F)(F)F)cc(C(F)(F)F)c2)n1)c1cncnc1 + CCN1C(C(=O)NC23CCC(C(=O)O)(CC2)CC3)C(c2cccc(Cl)c2F)C2(C(=O)Nc3cc(Cl)ccc32)C12CCCCC2	171881-019-R-J1-PDC complex spheroid growth, % test/control	29.3 nM
Cn1ncnc1[C@H]1c2n[nH]c(=O)c3cc(F)cc(c23)N[C@@H]1c1ccc(F)cc1 + CCN1C(C(=O)NC23CCC(C(=O)O)(CC2)CC3)C(c2cccc(Cl)c2F)C2(C(=O)Nc3cc(Cl)ccc32)C12CCCCC2	171881-019-R-J1-PDC complex spheroid growth, % test/control	> 100 nM
CNC(C)C(=O)NC1CN(S(=O)(=O)c2cccc(S(=O)(=O)N3CCC4CCC(C(=O)NC(c5ccccc5)c5ccccc5)N4C(=O)C(NC(=O)C(C)NC)C3)c2)CCC2CCC(C(=O)NC(c3ccccc3)c3ccccc3)N2C1=O (configuration not stated) + CCN1C(C(=O)NC23CCC(C(=O)O)(CC2)CC3)C(c2cccc(Cl)c2F)C2(C(=O)Nc3cc(Cl)ccc32)C12CCCCC2	171881-019-R-J1-PDC complex spheroid growth, % test/control	> 1000 nM
C#Cc1c(F)ccc2cc(O)cc(-c3ncc4c(N5CC6CCC(C5)N6)nc(OCC56CCCN5CC(F)C6)nc4c3F)c12 (configuration not stated) + CCN1C(C(=O)NC23CCC(C(=O)O)(CC2)CC3)C(c2cccc(Cl)c2F)C2(C(=O)Nc3cc(Cl)ccc32)C12CCCCC2	171881-019-R-J1-PDC complex spheroid growth, % test/control	> 10000 nM
Cc1nc(N2CCC3(CC2)COC(C)C3N)c(CO)nc1Sc1ccnc(N)c1Cl (configuration not stated) + CCN1C(C(=O)NC23CCC(C(=O)O)(CC2)CC3)C(c2cccc(Cl)c2F)C2(C(=O)Nc3cc(Cl)ccc32)C12CCCCC2	171881-019-R-J1-PDC complex spheroid growth, % test/control	> 3000 nM

Note to self: IC50 recorded for O=C(c1ccc(F)c(F)c1Nc1ccc(I)cc1F)N1CC(O)([C@@H]2CCCCN2)C1 + CCN1C(C(=O)NC23CCC(C(=O)O)(CC2)CC3)C(c2cccc(Cl)c2F)C2(C(=O)Nc3cc(Cl)ccc32)C12CCCCC2 was 286 nM

The compound COc1c(OCCCN2CCOCC2)ccc2c3n(c(=NC(=O)c4cnc(N)nc4)nc12)CCN3 + CCN1C(C(=O)NC23CCC(C(=O)O)(CC2)CC3)C(c2cccc(Cl)c2F)C2(C(=O)Nc3cc(Cl)ccc32)C12CCCCC2 showed IC50 equal to 29.7 nM

----------
// values below are reported IC50
test system: 171881-019-R-J1-PDC complex spheroid growth, % test/control; test: Anticancer human tumor 171881-019-R-J1-PDC cell line growth inhibition [Asc]; conditions: curve of first compound; second compound 0.949 µM

molecule	IC50
CCN1CCN(Cc2ccc(Nc3ncc(F)c(-c4cc(F)c5nc(C)n(C(C)C)c5c4)n3)nc2)CC1 + CCN1C(C(=O)NC23CCC(C(=O)O)(CC2)CC3)C(c2cccc(Cl)c2F)C2(C(=O)Nc3cc(Cl)ccc32)C12CCCCC2	> 1 µM
COc1c(OCCCN2CCOCC2)ccc2c3n(c(=NC(=O)c4cnc(N)nc4)nc12)CCN3 + CCN1C(C(=O)NC23CCC(C(=O)O)(CC2)CC3)C(c2cccc(Cl)c2F)C2(C(=O)Nc3cc(Cl)ccc32)C12CCCCC2	0.0331 µM

Briefly, IC50 measured for O=C(c1cc(Cc2n[nH]c(=O)c3ccccc23)ccc1F)N1CCN(C(=O)C2CC2)CC1 + CCN1C(C(=O)NC23CCC(C(=O)O)(CC2)CC3)C(c2cccc(Cl)c2F)C2(C(=O)Nc3cc(Cl)ccc32)C12CCCCC2 : > 10 µM

Record C#Cc1c(F)ccc2cc(O)cc(-c3ncc4c(N5CC6CCC(C5)N6)nc(OCC56CCCN5CC(F)C6)nc4c3F)c12 (centres undefined) + CCN1C(C(=O)NC23CCC(C(=O)O)(CC2)CC3)C(c2cccc(Cl)c2F)C2(C(=O)Nc3cc(Cl)ccc32)C12CCCCC2 . Reported IC50: > 10 µM

----------
tested on: 171881-019-R-J1-PDC complex spheroid growth, % test/control; assay: Anticancer human tumor 171881-019-R-J1-PDC cell line growth inhibition [Asc]; details: second compound 10 µM; first compound 1 µM; stronger effect = lower value;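 on viability, T/C: spheroids exposed to compounds for 7 days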
A collection of compounds and their measured viability, T/C
The figure you give is taken to be in %; do not add the unit.

Solved entries (count: 5):
compound	viability, T/C, %
C=CC(=O)N1CCN(c2nc(=O)n(-c3c(C)ccnc3C(C)C)c3nc(-c4c(O)cccc4F)c(F)cc23)C(C)C1 (stereo not drawn) + Cc1c(S(C)(=O)=O)c(-c2cc(F)cc(N3CCN(c4ccc(NS(=O)(=O)c5ccc(NC(CCN6CCC(C(=O)OCCCP(=O)(O)O)CC6)CSc6ccccc6)c(S(=O)(=O)C(F)(F)F)c5)cc4)CC3)c2)c(-c2ccc(Cl)cc2)n1C(C)C	187
CCN1CCN(Cc2ccc(Nc3ncc(F)c(-c4cc(F)c5nc(C)n(C(C)C)c5c4)n3)nc2)CC1 + Cc1c(S(C)(=O)=O)c(-c2cc(F)cc(N3CCN(c4ccc(NS(=O)(=O)c5ccc(NC(CCN6CCC(C(=O)OCCCP(=O)(O)O)CC6)CSc6ccccc6)c(S(=O)(=O)C(F)(F)F)c5)cc4)CC3)c2)c(-c2ccc(Cl)cc2)n1C(C)C	166
COc1c(OCCCN2CCOCC2)ccc2c3n(c(=NC(=O)c4cnc(N)nc4)nc12)CCN3 + Cc1c(S(C)(=O)=O)c(-c2cc(F)cc(N3CCN(c4ccc(NS(=O)(=O)c5ccc(NC(CCN6CCC(C(=O)OCCCP(=O)(O)O)CC6)CSc6ccccc6)c(S(=O)(=O)C(F)(F)F)c5)cc4)CC3)c2)c(-c2ccc(Cl)cc2)n1C(C)C	1.51
O=C(c1cc(Cc2n[nH]c(=O)c3ccccc23)ccc1F)N1CCN(C(=O)C2CC2)CC1 + Cc1c(S(C)(=O)=O)c(-c2cc(F)cc(N3CCN(c4ccc(NS(=O)(=O)c5ccc(NC(CCN6CCC(C(=O)OCCCP(=O)(O)O)CC6)CSc6ccccc6)c(S(=O)(=O)C(F)(F)F)c5)cc4)CC3)c2)c(-c2ccc(Cl)cc2)n1C(C)C	227
C=C(F)C(=O)N1CCN(c2nc(OCC3CCCN3C)nc3c2CCN(c2cccc4cccc(Cl)c24)C3)CC1CC#N (stereo not drawn) + Cc1c(S(C)(=O)=O)c(-c2cc(F)cc(N3CCN(c4ccc(NS(=O)(=O)c5ccc(NC(CCN6CCC(C(=O)OCCCP(=O)(O)O)CC6)CSc6ccccc6)c(S(=O)(=O)C(F)(F)F)c5)cc4)CC3)c2)c(-c2ccc(Cl)cc2)n1C(C)C	202

Briefly, viability, T/C measured for CNC(C)C(=O)NC1CN(S(=O)(=O)c2cccc(S(=O)(=O)N3CCC4CCC(C(=O)NC(c5ccccc5)c5ccccc5)N4C(=O)C(NC(=O)C(C)NC)C3)c2)CCC2CCC(C(=O)NC(c3ccccc3)c3ccccc3)N2C1=O (stereo not drawn) + Cc1c(S(C)(=O)=O)c(-c2cc(F)cc(N3CCN(c4ccc(NS(=O)(=O)c5ccc(NC(CCN6CCC(C(=O)OCCCP(=O)(O)O)CC6)CSc6ccccc6)c(S(=O)(=O)C(F)(F)F)c5)cc4)CC3)c2)c(-c2ccc(Cl)cc2)n1C(C)C : 173

Briefly, viability, T/C measured for O=C(c1ccc(F)c(F)c1Nc1ccc(I)cc1F)N1CC(O)([C@@H]2CCCCN2)C1 + Cc1c(S(C)(=O)=O)c(-c2cc(F)cc(N3CCN(c4ccc(NS(=O)(=O)c5ccc(NC(CCN6CCC(C(=O)OCCCP(=O)(O)O)CC6)CSc6ccccc6)c(S(=O)(=O)C(F)(F)F)c5)cc4)CC3)c2)c(-c2ccc(Cl)cc2)n1C(C)C : 3.48

get_value(item= C#Cc1c(F)ccc2cc(O)cc(-c3ncc4c(N5CC6CCC(C5)N6)nc(OCC56CCCN5CC(F)C6)nc4c3F)c12 (stereo not drawn) + Cc1c(S(C)(=O)=O)c(-c2cc(F)cc(N3CCN(c4ccc(NS(=O)(=O)c5ccc(NC(CCN6CCC(C(=O)OCCCP(=O)(O)O)CC6)CSc6ccccc6)c(S(=O)(=O)C(F)(F)F)c5)cc4)CC3)c2)c(-c2ccc(Cl)cc2)n1C(C)C , readout=viability, T/C) returns 91.5
